Assay: Tanguay_ZF_120hpf_ActivityScore_legacy: (Legacy) Oregon State University Tanguay Lab 120 Hour Post-fertilization zebrafish Assay Score for Activity (AID 2283742);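 as to AC50: dechorionated Tropical 5D wild-type zebrafish embryos held singly per well; static exposure from 6 hpf until 120 hpf at 28 °C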
The source made the active and inactive calls. The calls were made as follows: active = hit-call score of the fitted dose curve at least 0.9, where 1 is the maximum; inconclusive = response in the unintended direction; inactive = score below 0.9.
assayEndpoint: AC50

O=C(O)C1(c2ccc3c(c2)OC[C@H](Cc2ccc(-c4ccccc4)cc2)[C@H]3O)CCCC1; inactive
Clc1cccc(Cl)c1Cl; 4.46 nM (active)
Clc1cccc(Cl)c1; inactive

----------
Test: BSK_LPS_SRB: Viability Assessment in the BioMAP Diversity Plus: LPS Assay (AID 2283079);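 also: total protein by sulforhodamine B absorbance as a cytotoxicity measure; measured one day after compound addition; fitted in both directions against DMSO so loss or gain of signal counts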
Conditions: primary human HUVEC with PBMC
The source made the active and inactive calls. The calls were made as follows: active = hit-call score of the fitted dose curve at least 0.9, where 1 is the maximum; inactive = score below 0.9.
Thanks in advance; please answer with one of these: active, inactive

Before answering, review these 5 worked examples.
Cc1cc(C)cc(C)c1; inactive
Cc1cc(C(C)(C)c2ccc(O)c(C)c2)ccc1O; active
CCOC(=O)C(SP(=S)(OC)OC)c1ccccc1 (centres undefined); inactive
c1ccc(-c2cccc(-c3ccccc3)c2)cc1; active
Oc1cccc(-c2ccccc2)c1; active

Problem: Could you check what this test reported for Oc1c(Cl)cc(Cl)cc1Cl ?
Solution: inactive

Problem: Could you check what this test reported for N#Cc1cccnc1 ?
Solution: inactive

Problem: Could you check what this test reported for CCOP(=S)(OCC)SCS(=O)(=O)C(C)(C)C ?
Solution: inactive

Problem: Could you check what this test reported for [Cl][Sn]([c]1ccccc1)([c]1ccccc1)[c]1ccccc1 ?
Solution: active

Problem: Could you check what this test reported for O=C(CCl)NCO ?
Solution: inactive
